testedTarget: HCV NS3 protease domain (Hepatitis C virus genotype 1b)
Construct: The first 181 amino acids of NS3 (residues 1027-1207 of the viral polyprotein); hexa-histidine (C); made in house; host or cells: E. coli BL21/DE3 pLysS
test: biochemical
setupConditions: Enzyme Assay 1 (HCV NS3 Protease Domain Peptide Cleavage Assay) activity, apparent Ki class
recordedMetric: Ki

1. CCC[C@H](NC(=O)[C@@H]1C[C@]2(CC(c3cccc(Cl)c3)=NO2)CN1C(=O)[C@@H](NC(=O)CCn1ncc2ccccc21)C(C)(C)C)C(=O)C(=O)NC1CC1
100 to 500 nM

Hello, I would appreciate it if you could give Ki for each entry below.
1. CCC[C@H](NC(=O)[C@@H]1C[C@]2(CC(c3cccc(Cl)c3)=NO2)CN1C(=O)[C@@H](NC(=O)CC1CCCCC1)C(C)(C)C)C(=O)C(=O)Nc1ccc(F)c(F)c1
2. CCC[C@H](NC(=O)[C@@H]1C[C@]2(CC(c3cccc(Cl)c3)=NO2)CN1C(=O)[C@@H](NC(=O)NCC)C1CCCCC1)C(=O)C(=O)NC1CC1

> 500 nM
100 to 500 nM

* * *

Field: Ki. Provide a value for each of the molecules that follow.
testedTarget: HCV NS3 protease domain (Hepatitis C virus genotype 1b, UniProt Q9WMX2)
Construct: The first 181 amino acids of NS3 (residues 1027-1207 of the viral polyprotein); hexa-histidine (C); made in house; host or cells: E. coli BL21/DE3 pLysS
test: biochemical
setupConditions: Enzyme Assay 1 (HCV NS3 Protease Domain Peptide Cleavage Assay) activity, apparent Ki class

Here are 5 molecules together with their reported answers.
1. CCC[C@H](NC(=O)[C@@H]1C[C@]2(CC(c3cc(Cl)cnc3OC)=NO2)CN1C(=O)[C@@H](NC(=O)CC1CCCCC1)C(C)(C)C)C(=O)C(=O)NC1CC1
100 to 500 nM
2. CCC[C@H](NC(=O)[C@@H]1C[C@]2(CC(c3cccc(Cl)c3)=NO2)CN1C(=O)[C@@H](NC(=O)OCc1cccnc1)C(C)(C)C)C(=O)C(=O)NC1CC1
100 to 500 nM
3. CCC[C@H](NC(=O)[C@@H]1C[C@]2(CC(c3cccc(Cl)c3)=NO2)CN1C(=O)[C@@H](NC(=O)CCc1cccc(OC)c1)C(C)(C)C)C(=O)C(=O)NC1CC1
> 500 nM
4. CCC[C@H](NC(=O)[C@@H]1C[C@]2(CC(c3ccc(C)c(Cl)c3)=NO2)CN1C(=O)[C@@H](NC(=O)CC1CCCCC1)C(C)(C)C)C(=O)C(=O)NC1CC1
100 to 500 nM
5. CCC[C@H](NC(=O)[C@@H]1C[C@]2(CC(c3cccc(Cl)c3)=NO2)CN1C(=O)[C@@H](NC(=O)CC1CCCCC1)C(C)(C)C)C(=O)C(=O)N1CCC[C@H]1COC
> 500 nM

Record Ki per entry; entries follow.
1. CC(C)(C)[C@H](NC(=O)OCc1ccccc1)C(=O)N1C[C@@]2(CC(c3ccc4c(c3)OCO4)=NO2)C[C@H]1C(=O)NC(CC1CCC1)C(=O)C(N)=O (stereo partly drawn)
2. CCC[C@H](NC(=O)[C@@H]1C[C@]2(CC(c3cccc(Cl)c3)=NO2)CN1C(=O)[C@@H](NC(=O)OCCc1cccs1)C(C)(C)C)C(=O)C(=O)NC1CC1

1: 100 to 500 nM; 2: 100 to 500 nM

* * *

testedTarget: full-length hepatitis C viral protein NS3•4A (Hepatitis C virus genotype 1a, UniProt P27958)
Construct: hexa-histidine (N); made in house; host or cells: Sf9 insect cells (baculovirus, pVL1392)
test: biochemical
Parameters: species or system HCV sub-type strain 1a
setupConditions: Enzyme Assay 2, HCV NS3 Peptide Cleavage Assay, apparent Ki
Give Ki for every item shown.

1) CCC[C@H](NC(=O)[C@@H]1C[C@]2(CC(c3cc(C)c(OCC)c(C)c3)=NO2)CN1C(=O)[C@@H](NC(=O)CC1CCCCC1)C(C)(C)OC)C(=O)C(=O)NC1CC1 [Compound 956]
< 100 nM
2) CCC[C@H](NC(=O)[C@@H]1C[C@]2(CC(c3cc(C)c(OCC)c(C)c3)=NO2)CN1C(=O)[C@@H](NC(=O)[C@H]1C[C@@H]1c1ccc(F)cc1)C(C)(C)C)C(=O)C(=O)NC [Compound 997]
< 100 nM

# next molecule below
Look up Ki for this molecule: CNC(=O)C(=O)[C@H](CC1CC1)NC(=O)[C@@H]1C[C@]2(CC(c3cccc(Cl)c3)=NO2)CN1C(=O)[C@@H](NC(=O)Cc1cccnc1)C(C)(C)C [Compound 958]
< 100 nM

* * *

Field: pKi. Provide a value for each of the compounds that follow.
testedTarget: full-length hepatitis C viral protein NS3•4A (Hepatitis C virus genotype 1a, UniProt P27958)
Construct: hexa-histidine (N); made in house; host or cells: Sf9 insect cells (baculovirus, pVL1392)
test: biochemical
Design: species or system HCV sub-type strain 1a
setupConditions: Enzyme Assay 2 (HCV NS3 Peptide Cleavage Assay) activity, apparent Ki class
pKi: −log10 of the molar value.

Use these answered entries as a reference point.
1) CCC[C@H](NC(=O)[C@@H]1C[C@]2(CC(c3cc(Cl)cc(OC)c3OC)=NO2)CN1C(=O)[C@@H](NC(=O)CC1CCCCC1)C(C)(C)C)C(=O)C(=O)NC1CC1
> 7.00
2) CCC[C@H](NC(=O)[C@@H]1C[C@]2(CC(c3cccc(Cl)c3)=NO2)CN1C(=O)C(NS(=O)(=O)c1ccc(F)cc1)C(C)C)C(=O)C(=O)NC1CC1 (some centres unmarked)
< 6.30
3) CCC[C@H](NC(=O)[C@@H]1C[C@]2(CC(c3cccc(NC(=O)C(Cl)Cl)c3)=NO2)CN1C(=O)[C@@H](NC(=O)CC1CCCCC1)C(C)(C)C)C(=O)C(=O)NC1CC1
6.30 to 7.00
4) CCC[C@H](NC(=O)[C@@H]1C[C@]2(CC(c3cccc(Cl)c3)=NO2)CN1C(=O)[C@@H](NC(=O)CC1CCCCC1)C(C)(C)C)C(=O)C(=O)NCCOc1ccccc1OC
6.30 to 7.00
5) CCC[C@H](NC(=O)[C@@H]1C[C@]2(CC(c3cccc(Cl)c3)=NO2)CN1C(=O)CN1C(=O)OC[C@@H]1c1ccccc1)C(=O)C(=O)NC1CC1
< 6.30

Give one value of pKi per listed compound.
1. COc1c(C)cc(C2=NO[C@]3(C2)CC(C(=O)N[C@H](CC2CC2)C(=O)C(N)=O)N(C(=O)[C@@H](NC(=O)CC2CCCCC2)C(C)(C)C)C3)cc1Cl (some centres unmarked)
2. CCC[C@H](NC(=O)[C@@H]1C[C@]2(CC(CC)=NO2)CN1C(=O)[C@@H](NC(=O)CC1CCOCC1)C(C)(C)C)C(=O)C(=O)NC1CC1
3. CCC[C@H](NC(=O)[C@@H]1C[C@]2(CC(c3cccc(Cl)c3)=NO2)CN1C(=O)C1CCN(c2ccccc2)C1=O)C(=O)C(=O)NC1CC1 (some centres unmarked)
4. CCC[C@H](NC(=O)[C@@H]1C[C@]2(CC(c3cccc(Cl)c3)=NO2)CN1C(=O)[C@H](Cc1ccccc1C(F)(F)F)NC(=O)CC1CCCCC1)C(=O)C(=O)NC1CC1
5. CCC[C@H](NC(=O)[C@@H]1C[C@]2(CC(c3cccc(Cl)c3)=NO2)CN1C(=O)c1cc2cc(Br)ccc2[nH]1)C(=O)C(=O)NC1CC1
6. CCC[C@H](NC(=O)[C@@H]1C[C@]2(CC(c3cccc(Cl)c3)=NO2)CN1C(=O)[C@@H](NC(=O)CC1CCCCC1)[C@@H](C)c1ccccc1)C(=O)C(=O)NC1CC1

1. 6.30 to 7.00
2. < 6.30
3. < 6.30
4. 6.30 to 7.00
5. < 6.30
6. 6.30 to 7.00

* * *

Please respond with reported Ki for every item in the list.
testedTarget: full-length hepatitis C viral protein NS3•4A (Hepatitis C virus genotype 1a, UniProt P27958)
Construct: hexa-histidine (N); made in house; host or cells: Sf9 insect cells (baculovirus, pVL1392)
test: biochemical
Set-up: species or system HCV sub-type strain 1a
setupConditions: Enzyme Assay 2 (HCV NS3 Peptide Cleavage Assay) activity, apparent Ki class

Past entries and their recorded results:
1) CCC[C@H](NC(=O)[C@@H]1C[C@]2(CC(c3cccc(Cl)c3)=NO2)CN1C(=O)[C@@H](NC(=O)CC12CCCCC1C2)C(C)(C)C)C(=O)C(=O)NC1CC1 (some centres unmarked)
< 100 nM
2) C=C[C@@H]1C[C@]1(NC(=O)[C@@H]1C[C@]2(CC(c3cccc(Cl)c3)=NO2)CN1C(=O)[C@@H](NC(=O)CC1CCCCC1)C(C)(C)C)C(=O)NS(=O)(=O)NC1CC1
100 to 500 nM
3) CCC[C@H](NC(=O)[C@@H]1C[C@]2(CC(c3cccc(Cl)c3)=NO2)CN1C(=O)CCN(c1ccccc1)S(=O)(=O)c1ccccc1)C(=O)C(=O)NC1CC1
> 500 nM
4) CCC[C@H](NC(=O)[C@@H]1C[C@]2(CC(c3cccc4cccnc34)=NO2)CN1C(=O)[C@@H](NC(=O)CC1CCCCC1)C(C)(C)C)C(=O)C(=O)NC
< 100 nM
5) C[C@@H]1CC(CC(=O)N[C@H](C(=O)N2C[C@@]3(CC(c4cccc(Cl)c4)=NO3)C[C@H]2C(=O)N[C@@H](CC2CC2)C(=O)C(N)=O)C(C)(C)C)C[C@@H](C)O1 (some centres unmarked)
< 100 nM

Batch: Ki for all items listed.
1. CCC[C@H](NC(=O)[C@@H]1C[C@]2(CC(c3cc(Cl)c(OC)cc3OC)=NO2)CN1C(=O)[C@@H](NC(=O)CC1CC2CCC1C2)C(C)(C)C)C(=O)C(=O)NC1CC1 (some centres unmarked)
2. CCC[C@H](NC(=O)[C@@H]1C[C@]2(CC(c3cc(Cl)c4c(c3)CCC(C)(C)O4)=NO2)CN1C(=O)[C@@H](NC(=O)CC1CCCCC1)C(C)(C)C)C(=O)C(=O)NC1CC1
3. CCC[C@H](NC(=O)[C@@H]1C[C@]2(CC(c3cccc(Cl)c3F)=NO2)CN1C(=O)[C@@H](NC(=O)CC1CCCCC1)C(C)(C)C)C(=O)C(=O)NC1CC1
4. CCC[C@H](NC(=O)[C@@H]1C[C@]2(CC(c3cccc(Cl)c3)=NO2)CN1C(=O)[C@@H](NC(=O)C=C1CCCCC1)C(C)(C)C)C(=O)C(=O)NC1CC1

["< 100 nM", "< 100 nM", "100 to 500 nM", "< 100 nM"]

Please state Ki for every compound in the list that follows.
1. CCC[C@H](NC(=O)[C@@H]1C[C@]2(CC(c3cccc(Cl)c3)=NO2)CN1C(=O)[C@@H](NC(=O)CC1CC2CCC1C2)C1(OC)CC1)C(=O)C(=O)NC1CC1 (some centres unmarked)
2. CCC[C@H](NC(=O)[C@@H]1C[C@]2(CC(c3cc(Cl)c(OC)cc3C)=NO2)CN1C(=O)[C@@H](NC(=O)CC1CCCCC1)C(C)(C)C)C(=O)C(N)=O
3. CCC[C@H](NC(=O)[C@@H]1C[C@]2(CC(c3cccc(Cl)c3)=NO2)CN1C(=O)[C@@H](NC(=O)CC1CCCCC1)C(C)(C)C)C(=O)C(=O)N1CC(C)(O)C1
4. CCC[C@H](NC(=O)[C@@H]1C[C@]2(CC(c3cc(Cl)c(OC)cc3C)=NO2)CN1C(=O)[C@@H](NC(=O)CC1CCCCC1)C(C)(C)C)C(=O)C(=O)NC1CC1
5. CCC[C@H](NC(=O)[C@@H]1C[C@]2(CC(c3cccc(Cl)c3)=NO2)CN1C(=O)[C@@H](NC(=O)CC1(O)CCCCC1)C(C)(C)C)C(=O)C(=O)NC1CC1
6. CCC[C@H](NC(=O)[C@@H]1C[C@]2(CC(c3cccc(Cl)c3)=NO2)CN1C(=O)[C@@H](NC(=O)CC1CCCCC1)C(C)(C)C)C(=O)C(=O)N[C@H](C)c1ccccc1

< 100 nM
< 100 nM
100 to 500 nM
< 100 nM
< 100 nM
> 500 nM

Please give Ki for each item listed below.
1. CCC[C@H](NC(=O)[C@@H]1C[C@]2(CC(c3cccc(Cl)c3)=NO2)CN1C(=O)[C@@H](NC(=O)CC1CCCCC1)C(C)(C)C)C(=O)C(=O)N1CC[C@@H](NC(C)=O)C1
2. CCC[C@H](NC(=O)[C@@H]1C[C@]2(CC(CC)=NO2)CN1C(=O)[C@@H](NC(=O)NC(C)(C)C)C(C)(C)C)C(=O)C(=O)NC1CC1
3. CCC[C@H](NC(=O)[C@@H]1C[C@]2(CC(c3cccc([N+](=O)[O-])c3)=NO2)CN1C(=O)[C@@H](NC(=O)CC1CCCCC1)C(C)(C)C)C(=O)C(=O)NC1CC1
4. CCC[C@H](NC(=O)[C@@H]1C[C@]2(CC(c3ccc4c(c3)CCC(C)(C)O4)=NO2)CN1C(=O)[C@@H](NC(=O)CC1CCCCC1)C(C)(C)C)C(=O)C(=O)NC1CC1
5. CCC[C@H](NC(=O)[C@@H]1C[C@]2(CC(c3cc(F)cc4c3OCOC4)=NO2)CN1C(=O)[C@@H](NC(=O)CC1CCCCC1)C(C)(C)C)C(=O)C(=O)NC1CC1

> 500 nM
> 500 nM
100 to 500 nM
100 to 500 nM
100 to 500 nM
